Catalogue of PWR = 1 Dose readings, one per entry.
# Test system: adult female Sprague-Dawley rats
# Measurement notes: rat infusion study: pedal withdrawal reflex PWR = 1 (analgesic effect)
# Format: in vivo
# Experimental conditions: total drug administered to achieve PWR = 1; i.v. infusion
# Method: All animal experiments were conducted at the Ruakura Research Centre, Hamilton, New Zealand, using experimental protocols reviewed and approved by the Ruakura Animal Ethics Committee (ethics ref 12604). Following acquisition of baseline physiologic parameters (heart rate, respiratory rate, PWR, and righting reflex (RR)) adult female Sprague-Dawley rats of approximately 350-450 g were put under non-traumatic restraint and the marginal vein of the tail was cannulated. […]
Express your answer in mg/kg, writing the number without its unit.

Some solved entries appear below for comparison.
CCCOC(=O)CCNC1(c2ccccc2Cl)CCCCC1=O.Cl (racemic) :: 136
CCOC(=O)CCN[C@]1(c2ccccc2Cl)CCCCC1=O.Cl [(S)-C2Et] :: 62
CCCOC(=O)CCCNC1(c2ccccc2Cl)CCCCC1=O.Cl (racemic) :: 209

Consider now this further molecule.
**Q:** Quote PWR = 1 Dose reported for CCCOC(=O)CCCCNC1(c2ccccc2Cl)CCCCC1=O.Cl (racemic) please.
**A:** 83
